Please provide measured Selectivity index SI T47D for the entries that follow.
system: T47D cell line; assay: MTT cytotoxicity assay, T47D breast cancer cells; assay type: cell-based, human; details: IC50(BJ)/IC50(T47D)
The response must contain the number and no unit.

stdin: Read off the recorded Selectivity index SI T47D for O=C1C(=CN2CCN(c3cccc(F)c3)CC2)SC(=S)N1c1ccccc1 [Compound 16]
stdout: 1

stdin: Read off the recorded Selectivity index SI T47D for O=C1NC(=S)SC1=CN1CCN(c2cccc(Cl)c2)CC1 [Compound 7]
stdout: 1

stdin: Read off the recorded Selectivity index SI T47D for COc1cccc(N2CCN(C=C3SC(=S)NC3=O)CC2)c1 [Compound 11]
stdout: 1

stdin: Read off the recorded Selectivity index SI T47D for O=C1NC(=S)SC1=CN1CCN(c2cccc(F)c2)CC1 [Compound 8]
stdout: 1

stdin: Read off the recorded Selectivity index SI T47D for O=C1C(=CN2CCN(C(c3ccc(F)cc3)c3ccc(F)cc3)CC2)SC(=S)N1c1ccccc1 [Compound 15]
stdout: 1.06

stdin: Read off the recorded Selectivity index SI T47D for O=C1NC(=S)SC1=CN1CCN(C(c2ccc(F)cc2)c2ccc(F)cc2)CC1 [Compound 12]
stdout: 1

stdin: Read off the recorded Selectivity index SI T47D for O=C1C(=CN2CCN(c3cccc(Cl)c3)CC2)SC(=S)N1c1ccccc1 [Compound 14]
stdout: 1

stdin: Read off the recorded Selectivity index SI T47D for O=C1NC(=S)SC1=CN1CCN(c2ccc(Cl)c(Cl)c2)CC1 [Compound 10]
stdout: 2.2

stdin: Read off the recorded Selectivity index SI T47D for O=C1NC(=S)SC1=CN1CCN(c2ccc(Cl)cc2)CC1 [Compound 5]
stdout: 1

stdin: Read off the recorded Selectivity index SI T47D for O=C1NC(=S)SC1=CN1CCN(c2ccc([N+](=O)[O-])cc2)CC1 [Compound 6]
stdout: 1.08

stdin: Read off the recorded Selectivity index SI T47D for O=C1C(=CN2CCN(c3ccc(Cl)cc3)CC2)SC(=S)N1c1ccccc1 [Compound 13]
stdout: 1

stdin: Read off the recorded Selectivity index SI T47D for COc1cccc(N2CCN(C=C3SC(=S)N(c4ccccc4)C3=O)CC2)c1 [Compound 17]
stdout: 1
